Hello, the source for this data is patent US10047034B2, in case you need it.

Target: Human recombinant HMG-CoA reductase (Homo sapiens, UniProt P04035)
Sequence (P04035 426-888 limits assumed): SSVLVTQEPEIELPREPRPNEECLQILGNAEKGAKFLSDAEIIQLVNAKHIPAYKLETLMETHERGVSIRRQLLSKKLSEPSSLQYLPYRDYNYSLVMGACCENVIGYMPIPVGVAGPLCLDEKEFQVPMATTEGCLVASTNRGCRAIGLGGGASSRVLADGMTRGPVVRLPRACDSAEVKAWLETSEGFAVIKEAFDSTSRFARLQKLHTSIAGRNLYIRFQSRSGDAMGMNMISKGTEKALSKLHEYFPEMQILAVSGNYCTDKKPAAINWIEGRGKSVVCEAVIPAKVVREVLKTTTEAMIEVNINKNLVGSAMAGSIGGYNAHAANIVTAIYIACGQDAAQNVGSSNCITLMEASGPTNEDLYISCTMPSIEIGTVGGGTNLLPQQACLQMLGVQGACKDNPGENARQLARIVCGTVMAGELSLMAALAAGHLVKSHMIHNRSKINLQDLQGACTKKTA
Test: HMG-CoA reductase inhibition test ([14C]mevalonate formation)
Assay type: biochemical
Details: 3 μM; duplicates
measurement_type: inhibition at 3 µM (%)
Give just the number in %; leave the unit off.

Below: 3 molecules and their reported inhibition at 3 µM.
molecule: CC[C@H](C)C(=O)O[C@H]1C[C@@H](C)C=C2C=C[C@H](C)[C@H](CC[C@@H]3C[C@@H](O)CC(=O)O3)[C@H]21 [Lovastatin]
measurement_type: inhibition at 3 µM
measurement: 100
--
molecule: O=c1c(O[C@@H]2O[C@H](CO)[C@H](O)[C@H](O)[C@H]2O)c(-c2ccc(O)c(O)c2)oc2cc(O)cc(O)c12 [Quercetin-3-O-beta-D-galactopyranoside]
measurement_type: inhibition at 3 µM
measurement: 75
--
molecule: C[C@H]1[C@H](C)CC[C@]2(C(=O)O)CC[C@]3(C)C(=CC[C@@H]4[C@@]5(C)CC[C@H](O)C(C)(C)[C@@H]5CC[C@]43C)[C@H]12 [Ursolic acid]
measurement_type: inhibition at 3 µM
measurement: 0

Query block: For C[C@@H]1CC[C@]2(C(=O)O)CC[C@]3(C)C(=CC[C@@H]4[C@@]5(C)C[C@@H](O)[C@@H](O)C(C)(C)[C@@H]5CC[C@]43C)[C@@H]2[C@]1(C)O [Euscaphic acid] , what is its reported inhibition at 3 µM?
Result block: 91
